System: T1, human β-NGF (human, UniProt P01138 122-241, biotinylated (site not stated))
T1 construct: also called biotinylated human β-NGF; nerve growth factor
T1 sequence (P01138 122-241 limits assumed): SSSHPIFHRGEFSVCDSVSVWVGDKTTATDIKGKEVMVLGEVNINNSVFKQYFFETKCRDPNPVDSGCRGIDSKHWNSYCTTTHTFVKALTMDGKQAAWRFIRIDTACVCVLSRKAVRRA
Test Method Notes: radioactive equilibrium binding assay
Value Type: B max (%)
Unit % implied. Number only.

(Q) Tell us which B max value is on record for 61362-C6 (designed binder, group N1) MTIPEIIIKVRGTQVVGSDMTVIVEFTNPLNEPLLFVWVHLDGPGVTRPMKKMFRIISPHATVQWEEVVRPWVSGHRKLIASMSIGFQAHVYGELDVQIQRRDYKDDDDK
(A) 5.5

***
(Q) Tell us which B max value is on record for 61362-F2 (designed binder, group N2; Δ67-70, P71A) MTIPEIIIKVRGTQVVGSDMTVIVEFINTSNETLPSVWVHLDGPGVTRPMKKMFPEIPPNSSVQWEAWVSGHRKLIASMIRDSSRHVYGELDVQIQRRDYKDDDDK
(A) 35.4
